- procedure text: in vitro
- measurement setup: human, hela cells, % viability
measured parameter: viability at 28.5 h, 10 µM (%)
# output: bare number, implied unit %

compound	viability at 28.5 h, 10 µM / %
FC(F)(F)c1ccc(CN2CCN(c3nccnc3OCCN3CCOCC3)CC2)cc1 [CBK082890T]	90.8
CC(NC(=O)N(Cc1ccccc1C(F)(F)F)CC(C)(C)CN)c1cccc2ccccc12 (stereo not shown) [CBK002422C]	91.9
O=C(OCc1ccccc1)N1CCC(C2OCc3cc(-c4cccc5ncccc45)ccc3O2)CC1 (stereo not shown)	94.8
CC1(C)CC(=O)C2=C(C1)Nc1ccccc1N(CC(=O)O)C2c1cccs1 (stereo not shown)	83.6
CC(C)c1noc(NCCc2cn3c(n2)CCCC3)n1	93.5

Let us examine a further case.
Returns the measured viability at 28.5 h, 10 µM for the input compound. Input: Nc1nc2c(nc(Br)n2[C@H]2C[C@@H](O)[C@@H](CO)O2)c(=O)[nH]1
108

---

- procedure text: in vitro
- measurement setup: human, hela cells, % viability, bulk resorufin, single well
measured parameter: viability at 28.5 h, 10 µM (%)
# output: bare number, implied unit %

Examples with answers:
compound	viability at 28.5 h, 10 µM / %
N#CC1(c2ccccc2)CCN(C(=O)CCC(F)(F)F)CC1	97.7
Cc1ccc(-c2oncc2C(=O)N2CCC(C#N)(c3ccccc3)CC2)cc1	95.7
Cc1cccc(N2C(=O)NC(=O)C(CCc3ccccn3)(CCc3ccccn3)C2=O)c1C	91.7
CN1C(=O)CC(c2ccccc2)Nc2ccccc21 (stereo not drawn) [CBK086373C]	103
O=C(Cn1c(=O)oc2cc(Cl)ccc21)N1CCC2(CC1)OCCO2	97

Returns the measured viability at 28.5 h, 10 µM for the input compound. Input: O=C1NC(=O)N(Cc2ccccc2)C(=O)/C1=C/c1ccc(O)c(O)c1
117

Returns the measured viability at 28.5 h, 10 µM for the input compound. Input: O=C1NC(=O)C(=CNCCc2c[nH]c3ccccc23)C(=O)N1
93.2

Returns the measured viability at 28.5 h, 10 µM for the input compound. Input: CCOC(=O)C1(c2ccccc2)CCN(C(=O)c2ccc(OC(F)(F)F)cc2)CC1
96.2

Returns the measured viability at 28.5 h, 10 µM for the input compound. Input: CCOc1cc(C=C2C(=O)NC(=S)NC2=O)cc(Br)c1OCC(=O)O
98.4

---

viability at 28.5 h, 10 µM listing for selected compounds.
- procedure text: in vitro
- measurement setup: human, hela cells, % viability
# output: bare number, implied unit %

Examples with answers:
compound	readout units	viability at 28.5 h, 10 µM
NC(=O)C1CCN(C(=O)C2=NN(c3ccccc3)C(c3ccccc3)C2)CC1 (stereo not shown) [CBK296760]	%	99.1
CN1CCN(C(=O)CSc2nc(-c3cccs3)cc(C(F)(F)F)n2)CC1 [CBK307372]	%	92.3
CN(C(=O)C1CCC1)c1nc2c(s1)CCc1c-2cnn1C [CBK281931]	%	75.9

Returns the measured viability at 28.5 h, 10 µM for the input compound. Input: c1ccc2c(c1)OCC(COc1cncc(N3CCNCC3)n1)O2 (stereo not shown) [CBK172357G]
101

Returns the measured viability at 28.5 h, 10 µM for the input compound. Input: CN(CCO)c1ccc(C(=O)N2CCC(N3CCOCC3)CC2)cn1 [CBK306899]
97

Returns the measured viability at 28.5 h, 10 µM for the input compound. Input: O=C(O)c1cccc(-c2cnc(NCC3CC3)c(C(=O)NCC(F)(F)F)c2)c1 [CBK106420]
117

Returns the measured viability at 28.5 h, 10 µM for the input compound. Input: CC(C)NC(=O)C1CCN(c2nc3ccccc3n2C)CC1 [CBK283986]
87.5

Returns the measured viability at 28.5 h, 10 µM for the input compound. Input: CCOc1ccccc1NC(C)CC(=O)O (stereo not shown) [CBK058826]
82.8

Returns the measured viability at 28.5 h, 10 µM for the input compound. Input: COc1cncc(-c2cc(Nc3ccc(NS(=O)(=O)c4ccc(C)cc4)cc3)ncn2)c1 [CBK090988]
94.1

Returns the measured viability at 28.5 h, 10 µM for the input compound. Input: COc1ccc2[nH]c3c(c2c1)CCNC31CCN(Cc2cc(F)cc(F)c2)C1 (stereo not shown) [CBK039368]
81.9

Returns the measured viability at 28.5 h, 10 µM for the input compound. Input: Cc1ccc(S(=O)(=O)NCc2ccc(-c3nn(C)cc3-c3ccncc3C)cc2)cc1 [CBK285632]
89.2

Returns the measured viability at 28.5 h, 10 µM for the input compound. Input: CCn1cc(CN(CCN(C)C)Cc2cccs2)c(C)n1 [CBK283037]
101

Returns the measured viability at 28.5 h, 10 µM for the input compound. Input: O=C(NCCc1cccs1)Nc1cccc(CN2CCCCC2)c1 [CBK306882]
96.1

Returns the measured viability at 28.5 h, 10 µM for the input compound. Input: COC(=O)c1sccc1NC(=O)Cc1ccccc1[N+](=O)[O-] [CBK268146]
98.7

Returns the measured viability at 28.5 h, 10 µM for the input compound. Input: COc1cccc2cc(C(=O)NCc3cccs3)oc12 [CBK149799]
67.9

Returns the measured viability at 28.5 h, 10 µM for the input compound. Input: Cc1cccc(OCCn2cncc2-c2cn(C)nc2C)c1C [CBK281458]
112

---

- procedure text: in vitro
- measurement setup: human, hela cells, % viability
measured parameter: viability at 28.5 h, 10 µM (%)
# output: bare number, implied unit %

Examples with answers:
compound	viability at 28.5 h, 10 µM [%]
COc1c(C)cccc1C(=O)N1CCCC(c2ccc(Nc3nc(C)cc(C)n3)cn2)C1 (centres unmarked)	98.5
CN/C(=N\C1CCCCC1)N1CCOCC1 [CBK023800G]	92.2
COc1ccc(Nc2nc(-c3sc(C)nc3C)cs2)c(OC)c1	46.5
COC(=O)c1ccc(N2CCN(Cc3nc(C)c(C)o3)C(C)C2)cc1 (centres unmarked)	105

Returns the measured viability at 28.5 h, 10 µM for the input compound. Input: CC(C)[C@@H](Cn1nnc2ccccc21)NC(=O)c1ccco1
108

Returns the measured viability at 28.5 h, 10 µM for the input compound. Input: Cc1cc(C)cc(NC(=O)Cc2cc(=O)[nH]c(SCc3ccccc3)n2)c1
112

Returns the measured viability at 28.5 h, 10 µM for the input compound. Input: Cn1cnc(S(=O)(=O)N2CCC(C(=O)NC(c3ccccn3)c3cccs3)CC2)c1 (centres unmarked)
105

Returns the measured viability at 28.5 h, 10 µM for the input compound. Input: Cc1cc(Cl)cc(C)c1OCCN1CCNCC1 [CBK266057G]
84.4

Returns the measured viability at 28.5 h, 10 µM for the input compound. Input: CCOc1ccc(C2CCCN2S(=O)(=O)c2c[nH]c(=O)[nH]c2=O)cc1 (centres unmarked)
92.6

---

- procedure text: in vitro
- measurement setup: human, hela cells, % viability
measured parameter: viability at 28.5 h, 10 µM (%)
# output: bare number, implied unit %

Returns the measured viability at 28.5 h, 10 µM for the input molecule. Input: CC(C)(C)c1cc(CN(Cc2cc(C(C)(C)C)c(O)c(C(C)(C)C)c2)/N=C\c2ccccc2O)cc(C(C)(C)C)c1O [CBK261990]
101

---

- procedure text: in vitro
- measurement setup: human, hela cells, % viability
measured parameter: viability at 28.5 h, 10 µM
Numeric answer plus unit only.

compound	measured
CCOc1ccc(NC(=O)c2ccc(CN3CCOCC3)cc2)cc1	89.7%
CCCc1nnc2sc(C3CCC(=O)N(C(C)C)C3)nn12 (stereo not shown)	108%
Cc1c(C(=O)N(C)Cc2csc3ccccc23)nnn1C1CCNCC1	84.6%
O=C(O)CCSc1nnc(-c2cccc(Br)c2)o1	82.8%
CSc1nsc(SCC(=O)c2ccc(Oc3ccccc3)cc2)n1	96.8%

Returns the measured viability at 28.5 h, 10 µM for the input compound. Input: O=C(CCC1COc2ccccc2O1)N1CCN(Cc2ccccc2)CC1 (stereo not shown)
93.7%

Returns the measured viability at 28.5 h, 10 µM for the input compound. Input: c1ccc(Cn2cc(-c3cncn3CCCN3CCCCC3)cn2)cc1
91.4%

Returns the measured viability at 28.5 h, 10 µM for the input compound. Input: O=C(CCn1cnnn1)Nc1cc(C(F)(F)F)ccc1Cl
91.4%

Returns the measured viability at 28.5 h, 10 µM for the input compound. Input: O=C(CCn1c(C(F)F)cc2cccnc21)NC1CCCC1
95.5%

Returns the measured viability at 28.5 h, 10 µM for the input compound. Input: CCOCCCNC(=O)c1cnn2c(C)c(CC)c(C)nc12
93.7%

---

viability at 28.5 h, 10 µM listing for selected molecules.
- procedure text: in vitro
- measurement setup: human, hela cells, % viability
# output: bare number, implied unit %

Returns the measured viability at 28.5 h, 10 µM for the input molecule. Input: Cc1nc(C)n(CCC(=O)NC(C)c2cccs2)n1 (centres unmarked)
105

Returns the measured viability at 28.5 h, 10 µM for the input molecule. Input: N/C(CC(=O)Nc1cc(Cl)cc(Cl)c1)=N\O
105

Returns the measured viability at 28.5 h, 10 µM for the input molecule. Input: CCN1CC(C(=O)N2CCCC(COc3ccc(F)cc3)C2)CC1=O (centres unmarked)
85.3
